Molecular target: F508del-CFTR (Homo sapiens, UniProt P13569, DEL508-508)
Sequence (P13569 with tags, fused parts or gaps DEL508-508): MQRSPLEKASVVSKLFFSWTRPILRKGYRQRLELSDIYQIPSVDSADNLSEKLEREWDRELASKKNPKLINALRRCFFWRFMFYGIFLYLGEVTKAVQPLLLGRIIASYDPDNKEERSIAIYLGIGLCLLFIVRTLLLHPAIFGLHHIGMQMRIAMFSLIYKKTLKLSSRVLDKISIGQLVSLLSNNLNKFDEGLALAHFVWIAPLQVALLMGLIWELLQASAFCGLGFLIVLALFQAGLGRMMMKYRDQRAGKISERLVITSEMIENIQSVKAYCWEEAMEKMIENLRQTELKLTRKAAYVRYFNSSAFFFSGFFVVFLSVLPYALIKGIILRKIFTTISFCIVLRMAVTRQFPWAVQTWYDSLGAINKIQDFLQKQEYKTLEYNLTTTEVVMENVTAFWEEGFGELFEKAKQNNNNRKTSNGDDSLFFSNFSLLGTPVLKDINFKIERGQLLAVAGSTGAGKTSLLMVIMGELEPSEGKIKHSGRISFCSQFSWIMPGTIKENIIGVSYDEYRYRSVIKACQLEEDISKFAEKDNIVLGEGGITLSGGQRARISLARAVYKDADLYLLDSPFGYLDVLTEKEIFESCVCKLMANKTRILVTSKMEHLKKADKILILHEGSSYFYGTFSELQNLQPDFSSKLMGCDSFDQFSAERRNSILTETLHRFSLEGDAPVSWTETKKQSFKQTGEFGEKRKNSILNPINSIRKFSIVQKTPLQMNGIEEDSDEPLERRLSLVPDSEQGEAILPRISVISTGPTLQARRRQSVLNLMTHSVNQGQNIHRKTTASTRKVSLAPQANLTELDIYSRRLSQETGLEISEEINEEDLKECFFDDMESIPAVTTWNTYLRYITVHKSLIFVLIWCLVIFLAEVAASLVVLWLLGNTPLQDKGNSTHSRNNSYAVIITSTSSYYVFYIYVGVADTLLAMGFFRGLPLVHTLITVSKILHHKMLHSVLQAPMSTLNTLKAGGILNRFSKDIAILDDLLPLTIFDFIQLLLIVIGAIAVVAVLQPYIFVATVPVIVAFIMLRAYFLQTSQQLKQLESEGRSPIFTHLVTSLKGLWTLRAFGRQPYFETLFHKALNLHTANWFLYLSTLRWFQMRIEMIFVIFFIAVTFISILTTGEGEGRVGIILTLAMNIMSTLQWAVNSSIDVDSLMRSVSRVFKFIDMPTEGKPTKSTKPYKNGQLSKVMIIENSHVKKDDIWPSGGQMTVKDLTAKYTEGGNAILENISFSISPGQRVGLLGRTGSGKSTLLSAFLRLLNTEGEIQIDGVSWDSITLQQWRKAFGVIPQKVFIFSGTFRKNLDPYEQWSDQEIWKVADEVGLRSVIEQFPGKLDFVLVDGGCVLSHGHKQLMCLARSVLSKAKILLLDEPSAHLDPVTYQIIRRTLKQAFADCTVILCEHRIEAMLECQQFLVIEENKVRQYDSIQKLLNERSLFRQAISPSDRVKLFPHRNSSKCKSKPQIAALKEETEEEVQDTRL
Experiment: HS-YFP-based assay for CFTR activity on F508del-CFTR FRT cells rescued at 32 °C for 24 h
Type: cell-based
Set-up: expressed in transfected cells; key: fold increase in F508del-CFTR rescue relative to hit 3 (normalized)
Conditions: supplementary csv; same data as Tables 1–3
test readout: Emax

Example entries and their recorded answers appear below.
INSERT INTO results (molecule, test_readout, quantitative_readout) VALUES
  ('CS(=O)(=O)c1ccc2[nH]c3c(c2c1)CN(C(=O)c1cc(C(F)(F)F)[nH]n1)CC3', 'Emax', 0.28),
  ('Cc1ccc(F)c2[nH]c3c(c12)CN(C(=O)c1cc(C(F)(F)F)[nH]n1)C(C)C3 (racemic)', 'Emax', 0.95),
  ('CC(C)c1ccc2[nH]c3c(c2c1)CN(C(=O)c1cc(C(F)(F)F)[nH]n1)CC3', 'Emax', 0.69),
  ('Cc1ccc(F)c2[nH]c3c(c12)C(C)N(C(=O)c1cc(C(F)(F)F)[nH]n1)CC3 (racemic) [Compound 32]', 'Emax', 1.0),
  ('O=C(c1cc(C(F)(F)F)[nH]n1)N1CCc2[nH]c3ccc(C(F)(F)F)cc3c2C1', 'Emax', 0.95);

1. O=C(c1cnn(-c2ccccc2)c1)N1CCc2[nH]c3ccccc3c2C1
2. COc1ccc2[nH]c3c(c2c1)CN(C(=O)c1cc(C(F)(F)F)n(C)n1)CC3
3. Cc1ccc2c3c([nH]c2c1)CCN(C(=O)c1cc(C(F)(F)F)[nH]n1)C3
Prompt: Form: Sort by [Emax] Order [ ascending ] Show the ranking through the labels, in the order asked for.
Completion: 3, 1, 2
(3: 0.22, 1: 0.79, 2: 1.20)

Value source: paper PMC8011931
